Tested on: KRAS-mutant PDC tumor spheroid with HUVEC/MSC, viability;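 further: spheroids exposed to agents for seven days before reading; 100% = DMSO vehicle wells so lower means fewer viable cells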
test-name: Anticancer human tumor 327498-153-R-J2-PDC patient-derived uterine carcinosarcoma cell line growth inhibition [KRAS2]
particulars: second compound 1 µM; first compound 1 µM; active compounds read low
Measured viability, T/C, listed per entry.
Give your result in % as a bare value.

molecule	target-or-system	output-unit	assay-result
CCNC(=O)CC1N=C(c2ccc(Cl)cc2)c2cc(OC)ccc2-n2c(C)nnc21 (stereo not given) + CC1OCC2(CCN(c3cnc(Sc4ccnc(N)c4Cl)c(N)n3)CC2)C1N	KRAS-mutant PDC tumor spheroid with HUVEC/MSC, viability	%	18.3
COc1cc(Nc2ncc3c(n2)-c2ccc(Cl)cc2C(c2c(F)cccc2OC)=NC3)ccc1C(=O)O + CNCc1ccccc1-c1csc(C(C)Nc2nc(C)nc3cc(OC)c(OC)cc23)c1	KRAS-mutant PDC tumor spheroid with HUVEC/MSC, viability	%	8.26
CC(C)NCC(C(=O)N1CCN(c2ncnc3c2C(C)CC3O)CC1)c1ccc(Cl)cc1 (stereo not given) + C=CC(=O)N1CCN(c2nc(=O)n(-c3c(C)ccnc3C(C)C)c3nc(-c4c(O)cccc4F)c(F)cc23)C(C)C1	KRAS-mutant PDC tumor spheroid with HUVEC/MSC, viability	%	13.5
CC1OCC2(CCN(c3cnc(Sc4ccnc(N)c4Cl)c(N)n3)CC2)C1N (stereo not given) + CNCc1ccccc1-c1csc(C(C)Nc2nc(C)nc3cc(OC)c(OC)cc23)c1	KRAS-mutant PDC tumor spheroid with HUVEC/MSC, viability	%	31.9

Please examine the following record next.
[in] // query viability, T/C value for entry COc1cc2nccc(Oc3ccc(NC(=O)C4(C(=O)Nc5ccc(F)cc5)CC4)cc3)c2cc1OC + CNCc1ccccc1-c1csc(C(C)Nc2nc(C)nc3cc(OC)c(OC)cc23)c1
[out] 69.5

Reference for the values: PubChem BioAssay AID1963867
